// data source = patent US12522593B2

- targetOrTestSystem: human recombinant CTSC (Homo sapiens (Human))
- protocolSummary: CTSC inhibition assay (in vitro), fluorescent substrate GF-AFC
- Format: biochemical
- setupConditions: 30 μmol/L GF-AFC, pH 5.0, 25° C.
Please provide measured IC50 for the entries that follow.

For the 3 compounds below, give their IC50 values.
1. Cc1ccc(C2(C(=O)NCC3CCC(F)(F)CC3)CCN(C(=O)[C@@H]3CC[C@@]4(CCO4)CN3)CC2)cc1
2. CC(C)C1(c2nc(C3CC(C)(C)C3)no2)CN(C(=O)[C@@H]2CC[C@@]3(CCO3)CN2)C1
3. O=C([C@@H]1C[C@@H](O)C2(CCC2)CN1)N1CCC(c2cn(-c3ccc(F)cc3)nn2)CC1

Response:
1: 1.25 nM; 2: 1.47 nM; 3: 4.15 nM

====

For each of the compounds below, state its IC50.
- targetOrTestSystem: human recombinant CTSC (Homo sapiens (Human), UniProt P53634)
- Sequence (P53634 25-134): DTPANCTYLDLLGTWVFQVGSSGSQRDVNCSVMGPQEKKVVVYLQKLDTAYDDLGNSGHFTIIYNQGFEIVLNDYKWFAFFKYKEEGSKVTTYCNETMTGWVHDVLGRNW
- Sequence (P53634 231-394): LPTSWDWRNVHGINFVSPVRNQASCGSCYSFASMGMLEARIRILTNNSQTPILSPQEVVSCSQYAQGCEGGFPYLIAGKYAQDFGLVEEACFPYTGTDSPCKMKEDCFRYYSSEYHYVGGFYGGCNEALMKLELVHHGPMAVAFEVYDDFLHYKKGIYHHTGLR
- Sequence (P53634 395-463): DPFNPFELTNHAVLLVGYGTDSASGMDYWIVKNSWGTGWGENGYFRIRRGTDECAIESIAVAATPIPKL
- protocolSummary: CTSC inhibition assay (in vitro), fluorescent substrate GF-AFC
- Format: biochemical
- setupConditions: 30 μmol/L GF-AFC, pH 5.0, 25° C.

Here are 6 compounds together with their reported answers.
CC(C)C1(c2noc(C3CCC(F)(F)CC3)n2)CCN(C(=O)[C@H]2N[C@@H]3CC[C@H]2C3)CC1 | > 200 nM
CC1CC[C@@H](C(=O)N2CCC(c3noc(C4CCC(F)(F)CC4)n3)(C(C)C)CC2)NC1 (stereo partly shown) | > 100 nM
CC(C)C1(c2noc(C3CCC(F)(F)CC3)n2)CCN(C(=O)[C@H]2N[C@H]3CC[C@@H]2[C@H](O)C3)CC1 | > 200 nM
O=C([C@@H]1C[C@@H](O)C2(CCC2)CN1)N1CCC(c2nnn(C3CC(F)(F)C3)n2)(C(F)(F)F)CC1 | 3.25 nM
O=C([C@@H]1C[C@@H](O)C2(CCC2)CN1)N1CCC(c2noc(C3CCC(F)(F)CO3)n2)(C(F)(F)F)CC1 (stereo partly shown) [Example 63] | 1.85 nM
O=C([C@@H]1CC[C@@]2(CCO2)CN1)N1CCC(c2nc(C3CC(F)(F)C3)no2)(C(F)(F)F)CC1 | 39.3 nM

Now turn to the next compound.
Query: Consider the compound `CC(C)C1(c2noc(C3CCC(F)(F)CC3)n2)CCN(C(=O)[C@@H]2C[C@@H](O)C(C)(C)CN2)CC1` and give its measured IC50.
Response: 1.88 nM
